Examples of molecules with documented IC50 follow.
- Target Desc: androgen receptor (Homo sapiens, UniProt P10275)
- Sequence (P10275 whole entry, species assumed): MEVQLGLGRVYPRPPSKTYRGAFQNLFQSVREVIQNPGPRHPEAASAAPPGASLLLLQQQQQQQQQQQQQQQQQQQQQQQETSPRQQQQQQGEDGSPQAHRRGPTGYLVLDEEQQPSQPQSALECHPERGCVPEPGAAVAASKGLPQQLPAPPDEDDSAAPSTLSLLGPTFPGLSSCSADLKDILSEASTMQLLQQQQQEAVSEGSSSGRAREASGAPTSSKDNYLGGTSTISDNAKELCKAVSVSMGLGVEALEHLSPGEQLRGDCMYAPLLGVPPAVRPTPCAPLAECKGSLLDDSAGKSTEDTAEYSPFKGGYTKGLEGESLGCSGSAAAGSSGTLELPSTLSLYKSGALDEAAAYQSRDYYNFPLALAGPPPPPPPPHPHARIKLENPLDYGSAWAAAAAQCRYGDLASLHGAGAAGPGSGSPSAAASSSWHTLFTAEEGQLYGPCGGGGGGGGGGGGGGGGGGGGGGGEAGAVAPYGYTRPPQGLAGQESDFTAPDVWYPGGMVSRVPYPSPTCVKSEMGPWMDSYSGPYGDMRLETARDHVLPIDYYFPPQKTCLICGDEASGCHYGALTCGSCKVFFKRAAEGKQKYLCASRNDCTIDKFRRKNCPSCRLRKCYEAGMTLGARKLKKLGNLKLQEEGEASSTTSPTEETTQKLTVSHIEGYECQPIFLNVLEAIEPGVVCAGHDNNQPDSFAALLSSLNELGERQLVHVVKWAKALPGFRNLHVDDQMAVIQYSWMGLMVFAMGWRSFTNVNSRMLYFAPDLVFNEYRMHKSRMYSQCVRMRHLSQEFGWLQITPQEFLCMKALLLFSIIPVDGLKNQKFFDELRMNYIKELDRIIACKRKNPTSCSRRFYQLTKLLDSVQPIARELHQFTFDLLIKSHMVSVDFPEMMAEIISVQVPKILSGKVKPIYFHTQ
- Protocol Details: Androgen receptor binding test
- Set-up: expressed in transfected cells
Assay Readout: IC50 (nM)

- Molecule: "C[C@]12CC[C@H]3[C@H]([C@@H]1[C@H]1C[C@H]1[C@@]21C=CC(=O)O1)[C@H](C1CC1)CC1=CC(=O)CC[C@@H]13 [Example 17A]"
  Output Unit: "nM"
  Value Measured: 77
- Molecule: "CC[C@]12CC[C@H]3[C@H]([C@@H]1[C@@H]1C[C@@H]1[C@@]21C=CC(=O)O1)[C@H](C)CC1=CC(=O)CC[C@@H]13"
  Output Unit: "nM"
  Value Measured: 60
- Molecule: "C[C@]12CC[C@H]3[C@@H](CCC4=CC(=O)CC[C@@H]43)[C@@H]1[C@@H]1C[C@@H]1[C@@]21C=CC(=O)O1"
  Output Unit: "nM"
  Value Measured: 52
- Molecule: "CC[C@]12CC[C@H]3[C@@H]([C@H]4C[C@H]4C4=CC(=O)CC[C@@H]43)[C@@H]1[C@@H]1C[C@@H]1[C@@]21C=CC(=O)O1"
  Output Unit: "nM"
  Value Measured: 280
- Molecule: "CC[C@@H]1CC2=CC(=O)CC[C@@H]2[C@H]2CC[C@@]3(CC)[C@@H]([C@@H]4C[C@@H]4[C@@]34C=CC(=O)O4)[C@H]12"
  Output Unit: "nM"
  Value Measured: 110
- Molecule: "C=C[C@@H]1CC2=CC(=O)CC[C@@H]2[C@H]2CC[C@@]3(CC)[C@@H]([C@@H]4C[C@@H]4[C@@]34C=CC(=O)O4)[C@@H]21"
  Output Unit: "nM"
  Value Measured: 45
- Molecule: "C=C[C@@H]1CC2=CC(=O)CC[C@@H]2[C@H]2CC[C@@]3(C)[C@@H]([C@@H]4C[C@@H]4[C@@]34C=CC(=O)O4)[C@@H]21 [Example 25A]"
  Output Unit: "nM"
  Value Measured: 37
- Molecule: "C[C@]12CC[C@H]3[C@@H](CCC4=C(Cl)C(=O)CC[C@@H]43)[C@@H]1[C@H]1C[C@H]1[C@@]21C=CC(=O)O1"
  Output Unit: "nM"
  Value Measured: 140
- Molecule: "C[C@]12CC[C@H]3[C@@H](CCC4=CC(=O)CC[C@@H]43)[C@@H]1[C@H]1C[C@H]1[C@@]21C=CC(=O)O1"
  Output Unit: "nM"
  Value Measured: 200
- Molecule: "CC[C@@H]1CC2=CC(=O)CC[C@@H]2[C@H]2CC[C@@]3(C)[C@@H]([C@H]4C[C@H]4[C@@]34C=CC(=O)O4)[C@H]12 [Example 15A]"
  Output Unit: "nM"
  Value Measured: 60
- Molecule: "CC[C@]12CC[C@H]3[C@@H](C=CC4=CC(=O)CC[C@@H]43)[C@@H]1[C@@H]1C[C@@H]1[C@@]21C=CC(=O)O1"
  Output Unit: "nM"
  Value Measured: 1300
- Molecule: "CC[C@]12CC[C@H]3[C@H]([C@@H]1[C@@H]1C[C@@H]1[C@@]21C=CC(=O)O1)[C@H](C1CC1)CC1=CC(=O)CC[C@@H]13"
  Output Unit: "nM"
  Value Measured: 170
- Molecule: "CC[C@@H]1CC2=CC(=O)CC[C@@H]2[C@H]2CC[C@@]3(C)[C@@H]([C@@H]4C[C@@H]4[C@@]34C=CC(=O)O4)[C@H]12 [Example 24A]"
  Output Unit: "nM"
  Value Measured: 160

----------
- Target Desc: fusion protein from the PR-ligand-binding domain and a Gal4-transactivation domain (Homo sapiens, UniProt P06401)
- Construct: expressed in transfected cells; host or cells: CHO K1 cells, stably transfected
- Sequence (P06401 679-913 limits assumed): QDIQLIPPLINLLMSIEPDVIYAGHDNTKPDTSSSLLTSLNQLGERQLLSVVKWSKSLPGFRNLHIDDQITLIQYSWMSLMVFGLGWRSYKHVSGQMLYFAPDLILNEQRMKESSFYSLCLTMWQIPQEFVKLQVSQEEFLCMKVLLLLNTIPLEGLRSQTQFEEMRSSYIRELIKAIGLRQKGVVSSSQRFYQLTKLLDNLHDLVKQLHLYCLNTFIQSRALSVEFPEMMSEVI
- Sequence (P04386 1-147 partner limits assumed): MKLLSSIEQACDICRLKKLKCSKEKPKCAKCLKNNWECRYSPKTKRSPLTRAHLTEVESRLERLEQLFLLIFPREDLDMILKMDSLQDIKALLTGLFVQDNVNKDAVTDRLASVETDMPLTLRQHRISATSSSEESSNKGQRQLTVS
- Protocol Details: Progestational action by transactivation test (CHO K1 reporter cells)
- Assay type: cell-based
Assay Readout: log10 of EC50 (log10 of the value in nM)

- Compound: "C[C@]12CC[C@H]3[C@@H](CCC4=C(Cl)C(=O)CC[C@@H]43)[C@@H]1[C@@H]1C[C@@H]1[C@@]21C=CC(=O)O1"
  log10 of EC50: 2.52
- Compound: "CC[C@@H]1CC2=CC(=O)CC[C@@H]2[C@H]2CC[C@@]3(C)[C@@H]([C@@H]4C[C@@H]4[C@@]34C=CC(=O)O4)[C@H]12 [Example 24A]"
  log10 of EC50: 2.15
- Compound: "C=C[C@@H]1CC2=CC(=O)CC[C@@H]2[C@H]2CC[C@@]3(CC)[C@@H]([C@@H]4C[C@@H]4[C@@]34C=CC(=O)O4)[C@@H]21"
  log10 of EC50: 2.15
- Compound: "C[C@]12CC[C@H]3[C@@H](CCC4=CC(=O)CC[C@@H]43)[C@@H]1[C@H]1C[C@H]1[C@@]21C=CC(=O)O1"
  log10 of EC50: -0.40
- Compound: "C[C@]12CC[C@H]3[C@@H](CCC4=C(Cl)C(=O)CC[C@@H]43)[C@@H]1[C@H]1C[C@H]1[C@@]21C=CC(=O)O1"
  log10 of EC50: 2.91
- Compound: "C[C@@H]1CC2=CC(=O)CC[C@@H]2[C@H]2CC[C@@]3(C)[C@@H]([C@H]4C[C@H]4[C@@]34C=CC(=O)O4)[C@@H]21 [Example 14A]"
  log10 of EC50: 1.20
- Compound: "C[C@@H]1CC2=CC(=O)CC[C@@H]2[C@H]2CC[C@@]3(C)[C@@H]([C@@H]4C[C@@H]4[C@@]34C=CC(=O)O4)[C@@H]21 [Example 23A]"
  log10 of EC50: 1.32

----------
Examples of molecules with documented Emax follow.
- Target Desc: fusion protein from the PR-ligand-binding domain and a Gal4-transactivation domain (Homo sapiens)
- Construct: expressed in transfected cells; host or cells: CHO K1 cells, stably transfected
- Protocol Details: Progestational action by transactivation test (CHO K1 reporter cells)
- Assay type: cell-based
- Recorded Conditions: CHO-K1, 16 h, read-out: Progesterone receptor Agonism efficacy
- Description: 4. Determination of Progestational Action by Means of Transactivation Tests: The culture medium used for culture of the cells used for the assay was DMEM (Dulbecco's Modified Eagle Medium: […] glucose; PAA, #E15-009) with 10% FCS (Biochrom, S0115, batch #615B), 4 mM L-glutamine, 1% penicillin/streptomycin, 1 mg/ml G418 and 0.5 μg/ml puromycin. […]

- Molecule: "CC[C@]12CC[C@H]3[C@@H](CCC4=CC(=O)CC[C@@H]43)[C@@H]1[C@@H]1C[C@@H]1[C@@]21C=CC(=O)O1 [Example 9]"
  Output Unit: "%"
  Emax: 56
- Molecule: "CC[C@]12CC[C@H]3[C@@H]([C@H]4C[C@H]4C4=CC(=O)CC[C@@H]43)[C@@H]1[C@@H]1C[C@@H]1[C@@]21C=CC(=O)O1 [Example 1]"
  Output Unit: "%"
  Emax: 62.8
- Molecule: "CC[C@@H]1CC2=CC(=O)CC[C@@H]2[C@H]2CC[C@@]3(CC)[C@@H]([C@@H]4C[C@@H]4[C@@]34C=CC(=O)O4)[C@H]12 [Example 5A]"
  Output Unit: "%"
  Emax: 35.7
- Molecule: "C[C@@H]1CC2=CC(=O)CC[C@@H]2[C@H]2CC[C@@]3(C)[C@@H]([C@H]4C[C@H]4[C@@]34C=CC(=O)O4)[C@@H]21 [Example 14A]"
  Output Unit: "%"
  Emax: 86.3
- Molecule: "CC[C@@H]1CC2=CC(=O)CC[C@@H]2[C@H]2CC[C@@]3(C)[C@@H]([C@H]4C[C@H]4[C@@]34C=CC(=O)O4)[C@H]12 [Example 15A]"
  Output Unit: "%"
  Emax: 39.5

----------
- Target Desc: progesterone receptor (Homo sapiens, UniProt P06401)
- Construct: made in house; host or cells: Hi5 insect cells (cytosol)
- Sequence (P06401 whole entry, species assumed): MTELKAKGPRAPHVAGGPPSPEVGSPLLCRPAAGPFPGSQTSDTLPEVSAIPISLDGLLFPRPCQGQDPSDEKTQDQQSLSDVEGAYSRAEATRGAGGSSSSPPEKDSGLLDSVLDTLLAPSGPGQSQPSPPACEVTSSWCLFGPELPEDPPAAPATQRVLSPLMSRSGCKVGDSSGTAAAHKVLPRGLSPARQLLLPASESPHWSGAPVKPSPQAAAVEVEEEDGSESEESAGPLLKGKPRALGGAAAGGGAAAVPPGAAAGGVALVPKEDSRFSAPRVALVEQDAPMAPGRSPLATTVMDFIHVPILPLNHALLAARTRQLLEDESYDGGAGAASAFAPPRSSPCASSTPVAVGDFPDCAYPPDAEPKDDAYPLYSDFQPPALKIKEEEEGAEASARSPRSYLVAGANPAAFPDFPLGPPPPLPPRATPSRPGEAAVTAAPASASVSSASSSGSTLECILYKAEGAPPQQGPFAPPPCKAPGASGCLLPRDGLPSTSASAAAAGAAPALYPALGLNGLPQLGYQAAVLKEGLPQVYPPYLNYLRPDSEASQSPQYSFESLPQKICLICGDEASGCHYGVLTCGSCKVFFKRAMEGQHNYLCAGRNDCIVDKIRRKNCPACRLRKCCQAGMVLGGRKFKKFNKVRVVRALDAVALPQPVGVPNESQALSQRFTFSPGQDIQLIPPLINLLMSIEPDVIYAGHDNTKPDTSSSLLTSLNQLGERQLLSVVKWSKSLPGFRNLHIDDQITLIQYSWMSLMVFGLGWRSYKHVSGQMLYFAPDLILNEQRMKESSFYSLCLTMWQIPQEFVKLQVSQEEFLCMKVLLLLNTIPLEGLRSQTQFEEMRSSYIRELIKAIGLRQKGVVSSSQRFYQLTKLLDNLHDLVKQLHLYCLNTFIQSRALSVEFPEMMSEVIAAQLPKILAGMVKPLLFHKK
- Protocol Details: Progesterone receptor binding test
- Recorded Conditions: CF 1 = affinity of progesterone; CF >1 lower affinity, <1 higher affinity
API: label(entry) gives rule met if the entry's Progesterone receptor (PR) Competition factor is strictly smaller than 5; on equality or larger values it gives rule not met.

- Molecule: "CC[C@]12CC[C@H]3[C@@H]([C@H]4C[C@H]4C4=C(Cl)C(=O)CC[C@@H]43)[C@@H]1[C@@H]1C[C@@H]1[C@@]21C=CC(=O)O1"
  Target Desc: "progesterone receptor (Homo sapiens, UniProt P06401)"
  Class: "rule not met"
- Molecule: "CC[C@]12CC[C@H]3[C@@H](C[C@@H](CO)C4=CC(=O)CC[C@@H]43)[C@@H]1[C@@H]1C[C@@H]1[C@@]21C=CC(=O)O1"
  Target Desc: "progesterone receptor (Homo sapiens, UniProt P06401)"
  Class: "rule not met"
- Molecule: "C[C@]12CC[C@H]3[C@H]([C@@H]1[C@H]1C[C@H]1[C@@]21C=CC(=O)O1)[C@H](C1CC1)CC1=CC(=O)CC[C@@H]13 [Example 17A]"
  Target Desc: "progesterone receptor (Homo sapiens, UniProt P06401)"
  Class: "rule not met"
- Molecule: "CC[C@]12CC[C@H]3[C@H]([C@@H]1[C@@H]1C[C@@H]1[C@@]21C=CC(=O)O1)[C@H](C)CC1=CC(=O)CC[C@@H]13"
  Target Desc: "progesterone receptor (Homo sapiens, UniProt P06401)"
  Class: "rule met"
- Molecule: "C[C@]12CC[C@H]3[C@@H](CCC4=CC(=O)CC[C@@H]43)[C@@H]1[C@@H]1C[C@@H]1[C@@]21C=CC(=O)O1"
  Target Desc: "progesterone receptor (Homo sapiens, UniProt P06401)"
  Class: "rule met"
- Molecule: "CC[C@]12CC[C@H]3[C@@H](CCC4=CC(=O)CC[C@@H]43)[C@@H]1[C@@H]1C[C@@H]1[C@@]21C=CC(=O)O1"
  Target Desc: "progesterone receptor (Homo sapiens, UniProt P06401)"
  Class: "rule met"
- Molecule: "CC[C@]12CC[C@H]3[C@H]([C@@H]1[C@@H]1C[C@@H]1[C@@]21C=CC(=O)O1)[C@H](C1CC1)CC1=CC(=O)CC[C@@H]13"
  Target Desc: "progesterone receptor (Homo sapiens, UniProt P06401)"
  Class: "rule not met"
- Molecule: "C[C@]12CCC(=O)C=C1[C@@H]1C[C@@H]1[C@H]1[C@@H]3[C@@H]4C[C@@H]4[C@@]4(CCC(=O)O4)[C@@]3(C)CC[C@@H]12 [A, reference compound]"
  Target Desc: "progesterone receptor (Homo sapiens, UniProt P06401)"
  Class: "rule met"
- Molecule: "C=C[C@@H]1CC2=CC(=O)CC[C@@H]2[C@H]2CC[C@@]3(C)[C@@H]([C@@H]4C[C@@H]4[C@@]34C=CC(=O)O4)[C@@H]21 [Example 25A]"
  Target Desc: "progesterone receptor (Homo sapiens, UniProt P06401)"
  Class: "rule not met"
- Molecule: "C=C[C@@H]1CC2=CC(=O)CC[C@@H]2[C@H]2CC[C@@]3(CC)[C@@H]([C@@H]4C[C@@H]4[C@@]34C=CC(=O)O4)[C@@H]21"
  Target Desc: "progesterone receptor (Homo sapiens, UniProt P06401)"
  Class: "rule met"
